Measured values drawn from PubChem BioAssay AID248 for this set.

- Tested on: L1210 leukemia ip in BDF1 mice, survival T/C
- Protocol details: NCI In Vivo Anticancer Drug Screen. Data for tumor model L1210 Leukemia (intraperitoneal) in B6D2F1 (BDF1) mice
- Recorded conditions: endpoint: mean survival time; dose: 200.0 mg/kg/injection; schedule: Q01DX009 (ip); vehicle: gum acacia; higher = longer survival
Inconclusive results and toxic doses are left out.
Outcome measure: T/C

Name the reported T/C value associated with the molecule `COc1cccc(NC(=O)Nc2ccccc2Cl)c1`
98 % of control

Name the reported T/C value associated with the molecule `COc1ccc(COC(=O)Nc2ccccc2C(F)(F)F)cc1`
89 % of control

Name the reported T/C value associated with the molecule `COC(=O)CCC(=O)c1ccc(Cl)cc1`
97 % of control

Name the reported T/C value associated with the molecule `O=C(Nc1ccc(Cl)cc1)Nc1ccccc1Cl`
87 % of control

Name the reported T/C value associated with the molecule `COc1ccc(NC(=O)Nc2cccc(C(F)(F)F)c2)c(OC)c1`
98 % of control

Name the reported T/C value associated with the molecule `COc1ccc(Cl)cc1NC(=O)OC/C=C/c1ccccc1`
96 % of control

Name the reported T/C value associated with the molecule `O=C(Nc1cc(C(F)(F)F)ccc1Cl)C(=O)Nc1cc(C(F)(F)F)ccc1Cl`
93 % of control
